test: clinical; conditions: human, in vivo, iv, t1/2
READOUT: half-life (h)
Only the number, expressed in h, is required.

So what's the measured half-life for this one? CN1C(C(=O)Nc2ccccn2)=C(O)c2sccc2S1(=O)=O 67

Now consider CC1(C)C[C@@H]1C(=O)N/C(=C\CCCCSC[C@H](N)C(=O)O)C(=O)O and answer again. 0.86

// repeat for CC(=O)O[C@@]12CO[C@@H]1C[C@H](O)[C@@]1(C)C(=O)[C@H](O)C3=C(C)[C@@H](OC(=O)[C@H](O)[C@@H](NC(=O)OC(C)(C)C)c4ccccc4)C[C@@](O)([C@@H](OC(=O)c4ccccc4)[C@H]21)C3(C)C.O.O.O and report 11

* * *

conditions: human, in vivo, iv
The entries below come with measured MRT values attached.
Write the answer as a number in h, unit excluded.

| COMPOUND | UNIT STRING | MRT |
| --- | --- | --- |
| O=[N+]([O-])O[C@@H]1CO[C@H]2[C@@H]1OC[C@@H]2O (stereo in doubt; form 2) [ISOSORBIDE MONONITRATE] | h | 5.8 |
| C[C@@H](O)[C@H]1C(=O)N2C(C(=O)O)=C(S[C@@H]3CN[C@H](C(=O)N(C)C)C3)[C@H](C)[C@H]12 [MEROPENEM] | h | 1.3 |

Entry O=[N+]([O-])O[C@@H]1CO[C@H]2[C@@H]1OC[C@@H]2O (stereo in doubt; form 1) [ISOSORBIDE MONONITRATE] has what MRT? 2.3

* * *

experiment: clinical; settings: human, in vivo, iv
Measured MRT of individual entries
Don't forget the unit after the number, please.

These solved cases illustrate the format of a correct answer.
| MOLECULE | MRT |
| --- | --- |
| CCCCC/C=C\CCC(=O)N[C@H]1[C@H](Oc2c3cc4cc2Oc2ccc(cc2Cl)[C@@H](O[C@@H]2O[C@H](CO)[C@@H](O)[C@H](O)[C@H]2NC(C)=O)[C@@H]2NC(=O)[C@H](NC(=O)[C@@H]4NC(=O)[C@H]4NC(=O)[C@@H](Cc5ccc(c(Cl)c5)O3)NC(=O)[C@H](N)c3ccc(O)c(c3)Oc3cc(O)cc4c3)c3ccc(O)c(c3)-c3c(O[C@H]4O[C@H](CO)[C@@H](O)[C@H](O)[C@@H]4O)cc(O)cc3[C@@H](C(=O)O)NC2=O)O[C@H](CO)[C@@H](O)[C@@H]1O | 140 h |
| C[C@]12CC[C@@H]3c4ccc(OC(=O)N(CCCl)CCCl)cc4CC[C@H]3[C@@H]1CC[C@@H]2OP(=O)(O)O [ESTRAMUSTINE PHOSPHATE] | 2.1 h |

Read the next record carefully.
What measured MRT goes with CO[C@@]1(NC(=O)C2SC(=C(C(N)=O)C(=O)O)S2)C(=O)N2C(C(=O)O)=C(CSc3nnnn3C)CS[C@@H]21 (stereo partly drawn) ? 5.2 h

* * *

assay: clinical; conditions: human, in vivo, iv, t1/2
In this section we review reported half-life values for a set of compounds.
Report only the number, with the unit min understood.

Some entries whose results are on file:
| COMPOUND | OBSERVED RESULT |
| --- | --- |
| O=C(NC1CCN(CCc2c[nH]c3ccccc23)CC1)c1ccccc1 [INDORAMIN] | 258 |
| CO[C@H]1C[C@@H]2CC[C@@H](C)[C@@](O)(O2)C(=O)C(=O)N2CCCC[C@H]2C(=O)O[C@H]([C@H](C)C[C@@H]2CC[C@@H](OC(=O)C(C)(CO)CO)[C@H](OC)C2)CC(=O)[C@H](C)/C=C(\C)[C@@H](O)[C@@H](OC)C(=O)[C@H](C)C[C@H](C)/C=C/C=C/C=C/1C [TEMSIROLIMUS] | 1080 |

Query: half-life; subject: OCCN1C[C@H](O)[C@@H](O)[C@H](O)[C@H]1CO [MIGLITOL] 138

# iterate: CC(C)NCC(O)COc1cccc2[nH]ccc12 (stereo unspecified) [PINDOLOL] 132

Next compound up: Cc1onc(-c2c(Cl)cccc2Cl)c1C(=O)N[C@@H]1C(=O)N2[C@@H]1SC(C)(C)[C@@H]2C(=O)O [DICLOXACILLIN] 52.8

Input CC(=O)O[C@H]1C(=O)[C@@]2(C)[C@H]([C@H](OC(=O)c3ccccc3)[C@]3(O)C[C@H](OC(=O)[C@H](O)[C@@H](NC(=O)c4ccccc4)c4ccccc4)C(C)=C1C3(C)C)[C@]1(OC(C)=O)CO[C@@H]1C[C@@H]2O [PACLITAXEL] 660

Next: CC1=C(C(=O)O)N2C(=O)[C@@H](NC(=O)[C@H](N)C3=CCC=CC3)[C@H]2SC1 [CEPHRADINE] 51
